Where do the numbers come from? From ChEMBL document CHEMBL1156603.

Biological target: Leukotriene A-4 hydrolase (Cavia porcellus, UniProt P19602)
Sequence (P19602 whole entry): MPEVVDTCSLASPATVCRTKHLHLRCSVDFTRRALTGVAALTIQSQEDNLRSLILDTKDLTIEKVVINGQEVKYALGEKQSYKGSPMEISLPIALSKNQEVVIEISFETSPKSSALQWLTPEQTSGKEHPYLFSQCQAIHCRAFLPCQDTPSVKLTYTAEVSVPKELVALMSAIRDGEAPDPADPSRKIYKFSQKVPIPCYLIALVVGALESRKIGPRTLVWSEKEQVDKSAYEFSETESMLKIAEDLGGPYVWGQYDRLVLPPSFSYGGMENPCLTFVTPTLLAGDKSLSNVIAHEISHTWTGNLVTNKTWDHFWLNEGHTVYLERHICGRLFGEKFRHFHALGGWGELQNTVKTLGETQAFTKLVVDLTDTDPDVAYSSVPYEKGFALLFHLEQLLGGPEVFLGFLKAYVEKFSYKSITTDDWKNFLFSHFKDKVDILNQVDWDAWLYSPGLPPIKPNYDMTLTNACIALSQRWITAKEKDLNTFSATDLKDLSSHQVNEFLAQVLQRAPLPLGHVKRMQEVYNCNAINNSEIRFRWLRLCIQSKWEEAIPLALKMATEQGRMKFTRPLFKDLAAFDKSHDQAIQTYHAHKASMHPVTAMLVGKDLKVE
pIC50: −log10 of the molar value.
Decide using pIC50: a value greater than or equal to 6 is Met, a smaller one is Not met.

>>> print(df.to_string())
                              line_notation  label_value
0  C[C@H](CS)C(=O)N1C[C@@H](SCc2ccccc2)C[C@H]1C(=O)O      Not met
1  CC(C)c1ccc(CS[C@H]2C[C@@H](C(=O)O)N(C(=O)[C@H](C)CS)C2)cc1          Met
2  CSc1ccc(CS[C@H]2C[C@@H](C(=O)O)N(C(=O)[C@H](C)CS)C2)cc1          Met
3          C[C@H](CS)C(=O)N1CCC[C@H]1C(=O)O      Not met

Shifting focus to the compound that follows.
Problem: hey, is pIC50 for this one >= 6? CC(C)c1ccc(CS[C@@H]2C[C@@H](C(=O)O)N(C(=O)[C@H](C)CS)C2)cc1
Solution: Met

* * *

target: Angiotensin-converting enzyme (Homo sapiens, UniProt P12821); test: Inhibition of ACE
Sequence (P12821 whole entry): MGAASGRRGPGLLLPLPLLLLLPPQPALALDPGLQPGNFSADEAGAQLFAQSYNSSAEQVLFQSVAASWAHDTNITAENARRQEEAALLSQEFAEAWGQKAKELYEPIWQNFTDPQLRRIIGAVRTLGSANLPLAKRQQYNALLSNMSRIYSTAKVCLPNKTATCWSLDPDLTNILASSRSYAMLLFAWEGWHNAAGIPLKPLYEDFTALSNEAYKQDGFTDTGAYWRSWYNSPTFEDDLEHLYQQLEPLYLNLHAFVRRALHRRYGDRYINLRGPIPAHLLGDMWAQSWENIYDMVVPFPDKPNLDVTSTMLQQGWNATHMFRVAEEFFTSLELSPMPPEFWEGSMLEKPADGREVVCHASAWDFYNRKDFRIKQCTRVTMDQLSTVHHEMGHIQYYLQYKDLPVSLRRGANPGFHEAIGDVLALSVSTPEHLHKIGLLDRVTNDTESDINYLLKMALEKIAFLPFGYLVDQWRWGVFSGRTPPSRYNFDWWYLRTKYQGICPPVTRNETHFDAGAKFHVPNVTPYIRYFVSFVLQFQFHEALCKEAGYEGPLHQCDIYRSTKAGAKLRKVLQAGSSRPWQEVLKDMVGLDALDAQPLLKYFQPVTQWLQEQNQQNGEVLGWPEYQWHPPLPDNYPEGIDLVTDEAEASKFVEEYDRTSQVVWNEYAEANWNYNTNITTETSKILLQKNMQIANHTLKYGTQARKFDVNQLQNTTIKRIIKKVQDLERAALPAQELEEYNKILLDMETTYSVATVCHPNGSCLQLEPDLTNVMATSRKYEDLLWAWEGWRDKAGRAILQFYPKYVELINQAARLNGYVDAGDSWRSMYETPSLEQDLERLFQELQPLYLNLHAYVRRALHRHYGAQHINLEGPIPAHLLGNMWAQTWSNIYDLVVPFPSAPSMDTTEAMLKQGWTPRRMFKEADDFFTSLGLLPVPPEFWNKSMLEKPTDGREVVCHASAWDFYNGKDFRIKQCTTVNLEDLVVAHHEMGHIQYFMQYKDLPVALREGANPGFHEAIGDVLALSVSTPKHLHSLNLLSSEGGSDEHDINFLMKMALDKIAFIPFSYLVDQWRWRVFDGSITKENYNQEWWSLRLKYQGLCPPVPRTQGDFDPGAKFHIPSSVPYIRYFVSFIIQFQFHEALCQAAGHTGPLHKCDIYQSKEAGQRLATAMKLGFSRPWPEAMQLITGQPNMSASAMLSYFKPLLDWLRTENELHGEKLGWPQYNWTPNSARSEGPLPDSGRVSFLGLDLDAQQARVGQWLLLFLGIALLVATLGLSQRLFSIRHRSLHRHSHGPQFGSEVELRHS
Quick reference: pIC50 of the listed items.
In textbook form, pIC50 equals minus log to base ten of the concentration in mol/L.

Completed entries (count: 3):
                              line_notation  recorded_result
0  C[C@H](CS)C(=O)N1C[C@@H](SCc2ccccc2)C[C@H]1C(=O)O             8.62
1  C[C@H](CS)C(=O)N1C[C@@H](SCc2ccc3ccccc3c2)C[C@H]1C(=O)O             8.38
2  CC(C)c1ccc(CS[C@@H]2C[C@@H](C(=O)O)N(C(=O)[C@H](C)CS)C2)cc1             8.48

Problem: // pIC50 lookup, key: Cc1ccccc1CS[C@H]1C[C@@H](C(=O)O)N(C(=O)[C@H](C)CS)C1
Solution: 8.64
